methodNotes: Antioxidant activity assessed as inhibition of DPPH free radical scavenging activity after 60 mins by UV-Visible spectrophotometry
Assay type: physicochemical
Simple rule here: IC50 less than 20 µM is satisfied, otherwise not satisfied.

>>> df
                                inputsmiles          label
0  COc1cc(/C=N/N=c2/[nH]ncc3ccccc23)cc(Oc2cc(/C=N/N=c3/[nH]ncc4ccccc34)cc(OC)c2O)c1O.Cl.Cl      satisfied
1  COc1cc(/C=N/NC(=O)c2cc(C)n[nH]2)cc(-c2cc(/C=N/NC(=O)c3cc(C)n[nH]3)cc(OC)c2O)c1O  not satisfied
2  COc1cc(/C=N/NC(=O)c2ccncc2)cc(-c2cc(/C=N/NC(=O)c3ccncc3)cc(OC)c2O)c1O  not satisfied
3  COc1cc(/C=N/Nc2nc3ccccc3s2)cc(Oc2cc(/C=N/Nc3nc4ccccc4s3)cc(OC)c2O)c1O      satisfied
4  COc1cc(/C=N/Nc2nncc3ccccc23)cc(-c2cc(/C=N/Nc3nncc4ccccc34)cc(OC)c2O)c1O      satisfied

Here is the next item to consider.
Q: Record COc1cc(/C=N/NC(=O)c2ccncc2)cc(Oc2cc(/C=N/NC(=O)c3ccncc3)cc(OC)c2O)c1O : is its IC50 strictly below 20 µM?
A: not satisfied

----------
Entries and their viability at 24 h, 1 µM
methodNotes: Cytotoxicity against HMEC1 assessed as cell viability at 1 uM after 24 hrs by MTT assay in absence of oxidized LDL
Set-up: species or system HMEC-1
protocolConditions: human, HMEC1 cells; read-out: Activity
Respond with the bare value in %.

In [3]: df
Out[3]:
                                   molecule  measured
0  COc1cc(/C=N/NC(=O)c2cc(C)n[nH]2)cc(-c2cc(/C=N/NC(=O)c3cc(C)n[nH]3)cc(OC)c2O)c1O       107
1     COc1cc(C=O)cc(-c2cc(C=O)cc(OC)c2O)c1O       100
2  COc1cc(/C=N/Nc2nncc3ccccc23)cc(-c2cc(/C=N/Nc3nncc4ccccc34)cc(OC)c2O)c1O       109
3  COc1cc(/C=N/Nc2nc3ccccc3s2)cc(Oc2cc(/C=N/Nc3nc4ccccc4s3)cc(OC)c2O)c1O        93
4  COc1cc(/C=N/N=c2/[nH]ncc3ccccc23)cc(Oc2cc(/C=N/N=c3/[nH]ncc4ccccc34)cc(OC)c2O)c1O.Cl.Cl        95
5  COc1cc(/C=N/Nc2nc3ccccc3s2)cc(-c2cc(/C=N/Nc3nc4ccccc4s3)cc(OC)c2O)c1O        90
6  COc1cc(/C=N/NC(=O)c2ccncc2)cc(Oc2cc(/C=N/NC(=O)c3ccncc3)cc(OC)c2O)c1O        95
7  COc1cc(/C=N/NC(=O)OCc2ccccc2)cc(-c2cc(/C=N/NC(=O)OCc3ccccc3)cc(OC)c2O)c1O        91

Q: For COc1cc(/C=N/NC(=O)c2cc(C)n[nH]2)cc(Oc2cc(/C=N/NC(=O)c3cc(C)n[nH]3)cc(OC)c2O)c1O , what is its reported viability at 24 h, 1 µM?
A: 95

Q: For Cc1c(C)c2c(c(C)c1O)CCC(C)(C(=O)O)O2 (stereo not drawn) , what is its reported viability at 24 h, 1 µM?
A: 98

----------
methodNotes: Antioxidant activity assessed as inhibition of DPPH free radical scavenging activity after 60 mins by UV-Visible spectrophotometry
Assay type: physicochemical
recordedEndpoint: IC50

Below, each entry is followed by its recorded IC50 result.
>>> print(df.to_string())
                                inputsmiles  measured
0     COc1cc(C=O)cc(Oc2cc(C=O)cc(OC)c2O)c1O    289 µM
1  COc1cc(/C=N/NC(=O)OCc2ccccc2)cc(Oc2cc(/C=N/NC(=O)OCc3ccccc3)cc(OC)c2O)c1O   23.6 µM
2  COc1cc(/C=N/NC(=O)OCc2ccccc2)cc(-c2cc(/C=N/NC(=O)OCc3ccccc3)cc(OC)c2O)c1O   59.7 µM

Q: For COc1cc(C=O)cc(-c2cc(C=O)cc(OC)c2O)c1O , what is its reported IC50?
A: 382 µM

Q: For COc1cc(/C=N/Nc2nc3ccccc3s2)cc(-c2cc(/C=N/Nc3nc4ccccc4s3)cc(OC)c2O)c1O , what is its reported IC50?
A: 27.7 µM

----------
methodNotes: Cytoprotective activity in HMEC1 assessed as inhibition of oxidized LDL induced toxicity measured as residual viability at 10 uM after 24 hrs by MTT assay (reference value: 20 +/- 5 %)
Assay type: functional, Homo sapiens, HMEC-1
Quick rule for you: Activity at 70% or higher means satisfied, lower means not satisfied.

Examples with answers:
>>> print(df.to_string())
                                inputsmiles          label
0  COc1cc(/C=N/N=c2\[nH]ncc3ccccc23)cc(-c2cc(/C=N/N=c3/[nH]ncc4ccccc34)cc(OC)c2O)c1O.Cl.Cl      satisfied
1  COc1cc(/C=N/NC(=O)c2cc(C)n[nH]2)cc(Oc2cc(/C=N/NC(=O)c3cc(C)n[nH]3)cc(OC)c2O)c1O  not satisfied
2     COc1cc(C=O)cc(-c2cc(C=O)cc(OC)c2O)c1O  not satisfied

Q: Could you tell me if the measured Activity of COc1cc(/C=N/NC(=O)c2cc(C)n[nH]2)cc(-c2cc(/C=N/NC(=O)c3cc(C)n[nH]3)cc(OC)c2O)c1O reaches 70% or more?
A: not satisfied

Q: Could you tell me if the measured Activity of COc1cc(/C=N/NC(=O)c2ccncc2)cc(-c2cc(/C=N/NC(=O)c3ccncc3)cc(OC)c2O)c1O reaches 70% or more?
A: not satisfied

Q: Could you tell me if the measured Activity of COc1cc(/C=N/NC(=O)c2ccncc2)cc(Oc2cc(/C=N/NC(=O)c3ccncc3)cc(OC)c2O)c1O reaches 70% or more?
A: not satisfied

Q: Could you tell me if the measured Activity of COc1cc(C=O)cc(Oc2cc(C=O)cc(OC)c2O)c1O reaches 70% or more?
A: not satisfied

Q: Could you tell me if the measured Activity of COc1cc(/C=N/Nc2nc3ccccc3s2)cc(-c2cc(/C=N/Nc3nc4ccccc4s3)cc(OC)c2O)c1O reaches 70% or more?
A: satisfied

Q: Could you tell me if the measured Activity of COc1cc(/C=N/NC(=O)OCc2ccccc2)cc(-c2cc(/C=N/NC(=O)OCc3ccccc3)cc(OC)c2O)c1O reaches 70% or more?
A: satisfied

----------
methodNotes: Cytotoxicity against HMEC1 assessed as cell viability at 10 uM after 24 hrs by MTT assay in absence of oxidized LDL
Parameters: species or system HMEC-1
protocolConditions: human, HMEC1 cells; read-out: Activity
Simple rule here: viability at 24 h, 10 µM less than 90% is rule met, otherwise rule not met.

Examples with answers:
In [3]: df
Out[3]:
                                   compound         label
0     COc1cc(C=O)cc(Oc2cc(C=O)cc(OC)c2O)c1O      rule met
1  COc1cc(/C=N/NC(=O)c2cc(C)n[nH]2)cc(-c2cc(/C=N/NC(=O)c3cc(C)n[nH]3)cc(OC)c2O)c1O  rule not met
2  COc1cc(/C=N/Nc2nc3ccccc3s2)cc(Oc2cc(/C=N/Nc3nc4ccccc4s3)cc(OC)c2O)c1O      rule met
3  COc1cc(/C=N/Nc2nncc3ccccc23)cc(-c2cc(/C=N/Nc3nncc4ccccc34)cc(OC)c2O)c1O  rule not met
4  COc1cc(/C=N/NC(=O)OCc2ccccc2)cc(-c2cc(/C=N/NC(=O)OCc3ccccc3)cc(OC)c2O)c1O      rule met
5  Cc1c(C)c2c(c(C)c1O)CCC(C)(C(=O)O)O2 (stereo not drawn) [TROLOX]  rule not met

Q: Record COc1cc(/C=N/Nc2nc3ccccc3s2)cc(-c2cc(/C=N/Nc3nc4ccccc4s3)cc(OC)c2O)c1O : is its viability at 24 h, 10 µM strictly below 90%?
A: rule met

----------
Entries and their viability at 24 h, 1 µM
methodNotes: Cytotoxicity against HMEC1 assessed as cell viability at 1 uM after 24 hrs by MTT assay in absence of oxidized LDL
Design: species or system HMEC-1
protocolConditions: human, HMEC1 cells; read-out: Activity
Form entry: enter the amount, then its unit.

>>> print(df.to_string())
                                inputsmiles  measured
0  COc1cc(/C=N/NC(=O)c2ccncc2)cc(-c2cc(/C=N/NC(=O)c3ccncc3)cc(OC)c2O)c1O      100%
1     COc1cc(C=O)cc(Oc2cc(C=O)cc(OC)c2O)c1O       89%

Q: For COc1cc(/C=N/NC(=O)OCc2ccccc2)cc(Oc2cc(/C=N/NC(=O)OCc3ccccc3)cc(OC)c2O)c1O , what is its reported viability at 24 h, 1 µM?
A: 102%
